// data source = PubChem BioAssay (NCATS)

EXPERIMENT SUMMARY: qHTS drug screen for cell cycle checkpoint inhibitors in PARPi-resistant BRCA-mutant ovarian cancer cell lines. (AID 1963452)
TEST CONDITIONS: PEO1/OlaR viability, CellTiter-Glo luminescence, 96 h; measured here: PEO1 parental Z-AUC; stronger effect = lower value
Excerpt: Women's Malignancies Branch, Center for Cancer Research (CCR), National Cancer Institute (NCI), National Institutes of Health (NIH), Bethesda, MD Poly (ADP-ribose) polymerase inhibitors (PARPis) have changed the treatment paradigm in breast cancer gene (BRCA) - mutant high-grade serous ovarian carcinoma (HGSC). […] 6; Detection; Luminescence, PHERAstar (BMG Labtech) plate reader. […] 6. Luminescence readings were taken using PHERAstar (BMG Labtech). […]
PARAMETER: Z-AUC

{"COMPOUND": "COc1ccc(C(=O)CC2(O)C(=O)Nc3c(Cl)ccc(Cl)c32)cc1 (centres undefined)", "ENDPOINT RESULT": -0.455}
{"COMPOUND": "NCC(=O)Nc1ccc(-n2nc(C(F)(F)F)cc2-c2ccc3c(ccc4ccccc43)c2)cc1", "ENDPOINT RESULT": -0.764}
{"COMPOUND": "CC(C)C[C@H](NC(=O)CNC(=O)c1cc(Cl)ccc1Cl)B(O)O", "ENDPOINT RESULT": -1.48}
{"COMPOUND": "CC(C)c1cc(-c2n[nH]c(=O)n2-c2ccc3c(ccn3C)c2)c(O)cc1O", "ENDPOINT RESULT": -1.07}
{"COMPOUND": "CN1CCN(Cc2ccc(NC(=O)Nc3ccc(Oc4cc(NC(=O)C5CC5)ncn4)cc3)cc2C(F)(F)F)CC1", "ENDPOINT RESULT": -2.15}
{"COMPOUND": "COc1cc(Nc2ncc(F)c(Nc3ccc4c(n3)N(COP(=O)(O)O)C(=O)C(C)(C)O4)n2)cc(OC)c1OC", "ENDPOINT RESULT": 0.402}
{"COMPOUND": "O=C(c1ccc(Nc2nccc(-c3cc4ccccc4s3)n2)cc1)N1CCC(N2CCCC2)CC1", "ENDPOINT RESULT": 0.645}
{"COMPOUND": "CNC(=O)c1nn(C)c2c1C(C)(C)Cc1cnc(Nc3ccc(N4CCN(C)CC4)cc3)nc1-2", "ENDPOINT RESULT": -1.22}
{"COMPOUND": "C[C@]12CC[C@H](O)CC1=CCC1C2CC[C@]2(C)C(n3cnc4ccccc43)=CCC12 (some centres undefined)", "ENDPOINT RESULT": 1.13}
{"COMPOUND": "N#CCNC(=O)c1ccc(-c2ccnc(Nc3ccc(N4CCOCC4)cc3)n2)cc1", "ENDPOINT RESULT": 0.159}
{"COMPOUND": "Cc1cc(Nc2cc(N3CCN(C)CC3)nc(Sc3ccc(NC(=O)C4CC4)cc3)n2)n[nH]1", "ENDPOINT RESULT": -0.131}
{"COMPOUND": "COc1cccc(-c2ccc(NC(=O)C3=C(C(=O)O)CCC3)c(F)c2)c1", "ENDPOINT RESULT": 0.433}
{"COMPOUND": "C[C@@]12O[C@@H](C[C@]1(O)CO)n1c3ccccc3c3c4c(c5c6ccccc6n2c5c31)CNC4=O", "ENDPOINT RESULT": -0.538}
{"COMPOUND": "Cc1coc2c1C(=O)C(=O)c1c-2ccc2c1CCCC2(C)C", "ENDPOINT RESULT": 0.989}
{"COMPOUND": "C[C@@H]1COC(Nc2ccc3ncnc(Nc4ccc(OCc5nccs5)c(Cl)c4)c3c2)=N1", "ENDPOINT RESULT": -1.34}
{"COMPOUND": "COc1cc2c(Oc3ccc(NC(=O)C4(C(=O)Nc5ccc(F)cc5)CC4)cc3F)ccnc2cc1OCCCN1CCOCC1", "ENDPOINT RESULT": -0.246}
{"COMPOUND": "Nc1nccc(Oc2ccc(NC(=O)c3c[nH]cc(-c4ccc(F)cc4)c3=O)cc2F)c1Cl", "ENDPOINT RESULT": -0.587}
{"COMPOUND": "Cn1c(=O)n(-c2ccc(C(C)(C)C#N)cc2)c2c3cc(-c4cnc5ccccc5c4)ccc3ncc21", "ENDPOINT RESULT": -1.42}
{"COMPOUND": "COc1ccc2c(OCc3nnc4ccc(-c5ccccc5)nn34)ccnc2c1", "ENDPOINT RESULT": 0.23}
